TARGET SYSTEM: UniProt P04150
Sequence (whole entry): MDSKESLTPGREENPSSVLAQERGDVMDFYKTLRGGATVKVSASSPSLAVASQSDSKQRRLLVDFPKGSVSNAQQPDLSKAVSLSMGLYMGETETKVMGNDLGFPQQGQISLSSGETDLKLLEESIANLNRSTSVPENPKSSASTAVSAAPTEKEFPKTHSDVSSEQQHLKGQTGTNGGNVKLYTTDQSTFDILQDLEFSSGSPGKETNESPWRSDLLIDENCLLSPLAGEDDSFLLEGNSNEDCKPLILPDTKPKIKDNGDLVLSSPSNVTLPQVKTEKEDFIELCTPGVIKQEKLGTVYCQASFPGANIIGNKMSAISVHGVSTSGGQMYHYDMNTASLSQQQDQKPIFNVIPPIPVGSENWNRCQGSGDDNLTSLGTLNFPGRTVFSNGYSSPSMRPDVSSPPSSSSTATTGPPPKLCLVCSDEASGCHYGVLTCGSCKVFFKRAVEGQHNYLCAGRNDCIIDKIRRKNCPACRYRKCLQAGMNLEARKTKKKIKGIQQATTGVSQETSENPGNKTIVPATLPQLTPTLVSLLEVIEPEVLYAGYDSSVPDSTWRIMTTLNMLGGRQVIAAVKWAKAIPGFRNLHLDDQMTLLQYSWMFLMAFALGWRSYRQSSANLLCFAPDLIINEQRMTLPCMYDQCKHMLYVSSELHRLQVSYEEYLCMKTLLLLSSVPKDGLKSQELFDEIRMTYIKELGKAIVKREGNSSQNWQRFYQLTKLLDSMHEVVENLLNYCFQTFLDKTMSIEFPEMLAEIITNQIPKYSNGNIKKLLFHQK
EXPERIMENTAL PROTOCOL: Agonist activity at glucocorticoid receptor in human A549 cells assessed as inhibition of PMA-induced AP-1 activation by luciferase reporter gene assay relative to dexamethasone
Assay type: cell-based
QUANTITY NAME: Efficacy (%)

Challenge: State, in one line, measured Efficacy of CC(C)(C(=O)Nc1nncs1)C(c1ccccc1)c1ccc2c(cnn2-c2ccccn2)c1 (racemic)
Response given: 62

[P] CC(C)(C(=O)Nc1nncs1)C(c1ccccc1)c1ccc2c(cnn2-c2ccc(O)cc2)c1 (racemic)
[Q] CC(C)(C(=O)Nc1nncs1)C(c1ccccc1)c1ccc2c(cnn2CCCO)c1 (racemic)
Challenge: Between these two entries, P and Q , state which has the higher Efficacy. Let me know the label of the one you choose.
Response given: P
(P: 69%, Q: 45%)
